The reader will find reported Ratio heart vasc. values listed item by item below.
Tested on: isolated portal vein preparation / paced isolated papillary heart muscle preparation
protocolText: Specificity towards smooth muscle relaxation: isolated portal vein versus paced papillary heart muscle in an organ bath
Parameters: species or system Wistar rats
conditionSet: separation value: averaged difference of -log ED50 portal vein (vasodilatation) and -log ED50 papillary muscle (myocardial depression), transformed into numeric format

- compound: "CC1=C(C(=O)OCCSCCN(C)C)C(c2cccc(Cl)c2Cl)C(C(=O)OC(C)C)=C(C)N1 (stereo not shown)"
  Ratio heart vasc.: 19
- compound: "COC(=O)C1=C(C)NC(C)=C(C(=O)OCCSCCN(C)C)C1c1cccc([N+](=O)[O-])c1 (stereo not shown)"
  Ratio heart vasc.: 30
- compound: "COC(=O)C1=C(C)NC(C)=C(C(=O)OCCSCCN(Cc2ccccc2)C(C)C)C1c1cccc(Cl)c1Cl (stereo not shown)"
  Ratio heart vasc.: 22
- compound: "COCCOC(=O)C1=C(C)NC(C)=C(C(=O)OCCSCCN2CCOCC2)C1c1cccc(Cl)c1Cl (stereo not shown)"
  Ratio heart vasc.: 70
- compound: "COC(=O)C1=C(C)NC(C)=C(C(=O)OC)C1c1ccccc1[N+](=O)[O-] [Nifedipine, reference compound]"
  Ratio heart vasc.: 15
- compound: "COCCOC(=O)C1=C(C)NC(C)=C(C(=O)OCCSCCN(C)C)C1c1cccc(Cl)c1Cl (stereo not shown)"
  Ratio heart vasc.: 20
- compound: "COC(=O)C1=C(C)NC(C)=C(C(=O)OCCSCCN2CCOCC2)C1c1cccc(Cl)c1Cl (stereo not shown)"
  Ratio heart vasc.: 27

Sourced from patent EP0095451A2
